Assay: Toxicity in Artemia salina assessed as mortality rate at 75 ug/ml measured after 24 hrs relative to control
Assay type: organism-based
Conditions: in vivo, at 75 µg/mL

smiles code | mortality at 24 h, 75 ug/ml / %
COc1ccc(/C=C/C(=O)c2c(O)cc(O[C@@H]3O[C@H](CO[C@@H]4O[C@@H](C)[C@H](O)[C@@H](O)[C@H]4O)[C@@H](O)[C@H](O)[C@H]3O)cc2OC)cc1O | 36.6

---

Assay: Cytotoxicity against mouse Neuro2a cells assessed as cell viability at 100 ug/ml incubated for 24 hrs by MTT assay
Assay type: toxicity, cell-based
Settings: Neuro2a (N2a) cells, at 100 µg/mL, read-out: Activity
measurement kind: viability at 24 h, 100 ug/ml (%)

smiles code | measurement kind | number
COc1ccc(/C=C/C(=O)c2c(O)cc(O[C@@H]3O[C@H](CO[C@@H]4O[C@@H](C)[C@H](O)[C@@H](O)[C@H]4O)[C@@H](O)[C@H](O)[C@H]3O)cc2OC)cc1O | viability at 24 h, 100 ug/ml | 99.6

---

Assay: Toxicity in Artemia salina assessed as mortality rate at 100 ug/ml measured after 24 hrs relative to control
Format: organism-based
Conditions: in vivo, at 100 µg/mL
measurement kind: mortality at 24 h, 100 ug/ml (%)

smiles code | number
COc1ccc(/C=C/C(=O)c2c(O)cc(O[C@@H]3O[C@H](CO[C@@H]4O[C@@H](C)[C@H](O)[C@@H](O)[C@H]4O)[C@@H](O)[C@H](O)[C@H]3O)cc2OC)cc1O | 53.3
